Ref: ChEMBL document CHEMBL1140915

RUN_DESCRIPTION: AUC in rat at 3 mg/kg, iv administered with 0.4% hydroxypropyl methylcellulose
Assay type: ADME, organism-based
Parameters: dose 3 mg/kg, route intravenous
ASSAY_CONTEXT: in vivo
QUANTITY_KIND: AUC

Prompt: # get_value(readout='AUC', item= C=CCNC(=O)C(=O)C(CC1CC1)NC(=O)[C@@H]1[C@@H]2[C@H](CN1C(=O)[C@@H](NC(=O)NC(CN1C(=O)CC(C)(C)CC1=O)C(C)(C)C)C(C)(C)C)C2(C)C (single isomer, unassigned) )
Response: 1.6 µM·h

###

RUN_DESCRIPTION: Inhibition of HCV NS3 protease in absence of human serum
Parameters: species or system Hepacivirus hominis
Measured pKi accompanies every entry in the list below.
In simple prose, pKi is minus the logarithm base ten of a concentration in moles per litre.

Prompt: # get_value(readout='pKi', item= C=CCNC(=O)C(=O)C(CCCC)NC(=O)[C@@H]1[C@@H]2[C@H](CN1C(=O)[C@@H](NC(=O)N[C@@H](CN1C(=O)CCC(C)(C)C1=O)C(C)(C)C)C(C)(C)C)C2(C)C (stereo partly drawn) )
Response: 8.15

Prompt: # get_value(readout='pKi', item= CCCCC(NC(=O)[C@@H]1[C@@H]2[C@H](CN1C(=O)[C@@H](NC(=O)NC(CN1C(=O)CC(C)(C)CC1=O)C(C)(C)C)C(C)(C)C)C2(C)C)C(=O)C(=O)NCc1cccs1 (single isomer, unassigned) )
Response: 7.92

Please turn your attention to the following entry.
Prompt: # get_value(readout='pKi', item= C=CCNC(=O)C(=O)C(CCCC)NC(=O)[C@@H]1[C@@H]2[C@H](CN1C(=O)[C@@H](NC(=O)N[C@@H](CN1C(=O)c3ccccc3C1=O)C(C)(C)C)C(C)(C)C)C2(C)C (stereo partly drawn) )
Response: 7.52

###

RUN_DESCRIPTION: AUC in rat at 10 mg/kg, po administered with 20% HPBCD
Assay type: ADME, organism-based
Design: dose 10 mg/kg, route oral
ASSAY_CONTEXT: plasma
Measured AUC accompanies every entry in the list below.
Enter your answer as a number in µM·h; do not include the unit.

Field: example entries. Status: answers known.
Prompt: # get_value(readout='AUC', item= C=CCNC(=O)C(=O)C(CCCC)NC(=O)[C@@H]1[C@@H]2[C@H](CN1C(=O)[C@@H](NC(=O)N[C@@H](CN1C(=O)CCCC1=O)C(C)(C)C)C(C)(C)C)C2(C)C (stereo partly drawn) )
Response: 0.44

Prompt: # get_value(readout='AUC', item= C=CCNC(=O)C(=O)C(CCCC)NC(=O)[C@@H]1[C@@H]2[C@H](CN1C(=O)[C@@H](NC(=O)NC(CN1C(=O)CN(C)CC1=O)C(C)(C)C)C(C)(C)C)C2(C)C (single isomer, unassigned) )
Response: 0.36

Next:
Prompt: # get_value(readout='AUC', item= C=CCNC(=O)C(=O)C(CC1CC1)NC(=O)[C@@H]1[C@@H]2[C@H](CN1C(=O)[C@@H](NC(=O)NC(CN1C(=O)CC(C)(C)CC1=O)C(C)(C)C)C(C)(C)C)C2(C)C (single isomer, unassigned) )
Response: 1.2

###

RUN_DESCRIPTION: Half life in monkey at 1 mg/kg, iv administered with 0.4% hydroxypropyl methylcellulose
Type: ADME, organism-based, Macaca mulatta
Set-up: dose 1 mg/kg, route intravenous
ASSAY_CONTEXT: rhesus monkey, in vivo
QUANTITY_KIND: half-life (h)
Enter your answer as a number in h; do not include the unit.

Prompt: # get_value(readout='half-life', item= C=CCNC(=O)C(=O)C(CC1CC1)NC(=O)[C@@H]1[C@@H]2[C@H](CN1C(=O)[C@@H](NC(=O)NC(CN1C(=O)CC(C)(C)CC1=O)C(C)(C)C)C(C)(C)C)C2(C)C (single isomer, unassigned) )
Response: 2.3
